This collection of values is drawn from ChEMBL document CHEMBL1152572.

Entries and their IC50
System: Plasmodium falciparum
protocol-details: Antiplasmodial activity against chloroquine-sensitive Plasmodium falciparum HB3 assessed as SYBR Green 1 fluorescence emission after 72 hrs
Format: functional, organism-based
protocol-conditions: HB3, 72 h
I only need the number, in nM, no unit after it.

Example entries and their recorded answers appear below.
CCN(CC)CCC(=O)NCCOc1ccnc2cc(Cl)ccc12 :: 1710
CCN(CC)CCCNCCCOc1ccnc2cc(Cl)ccc12 :: 19.7
CCN(CC)CCC(=O)NCCCOc1ccnc2cc(Cl)ccc12 :: 2320
CCN(CC)CC(=O)NCCNc1ccnc2cc(Cl)ccc12 :: 715
CCN(CC)CCN(CC)CCNc1ccnc2cc(Cl)ccc12 :: 5

Request: Form entry - test system: Plasmodium falciparum; read-out: IC50; compound: CCN(CC)CCCN(CC)CCCOc1ccnc2cc(Cl)ccc12
Response: 77.5

Request: Form entry - test system: Plasmodium falciparum; read-out: IC50; compound: CCN(CC)CCNCCNc1ccnc2cc(Cl)ccc12
Response: 10.8

Request: Form entry - test system: Plasmodium falciparum; read-out: IC50; compound: CCN(CC)CCCNCCOc1ccnc2cc(Cl)ccc12
Response: 94.6

Request: Form entry - test system: Plasmodium falciparum; read-out: IC50; compound: CCN(CC)CCCCCCN(CC)CCNc1ccnc2cc(Cl)ccc12
Response: 5

Request: Form entry - test system: Plasmodium falciparum; read-out: IC50; compound: CCN(CC)CCCCC(=O)NCCNc1ccnc2cc(Cl)ccc12
Response: 228

Request: Form entry - test system: Plasmodium falciparum; read-out: IC50; compound: CCN(CC)CCCN(CC)CCOc1ccnc2cc(Cl)ccc12
Response: 321

Request: Form entry - test system: Plasmodium falciparum; read-out: IC50; compound: CCN(CC)CCN(CCNc1ccnc2cc(Cl)ccc12)CCN(CC)CC
Response: 7
